The compounds listed here are annotated with their melting point.
MEASURED_ENDPOINT: melting point

CCc1cc(-c2[nH]c3ccccc3c2C)cc(CC)c1O = 112 °C
O=C(CCCCCNC(=O)OCc1ccccc1)N[C@@H](Cc1ccccc1)C(=O)O = 119 to 120 °C
CCc1noc(-c2cn(-c3cccc(OCc4ccccc4)c3)cn2)n1 = 113 to 114 °C
COc1ccc(SC2CC(=O)NC2=O)cc1 (stereo not drawn) = 93 to 94 °C
CCC(COC)Nc1nc(C)nc(Cl)c1N (stereo not drawn) = 128 to 130 °C
O=C(N[C@H](CC1CCCCC1)CN1CCN(c2nccc3ccccc23)CC1)C1CCCCC1 = 155 to 159 °C
CC(C)(C)c1ccc(-c2nc(NC(=O)C3CCCC3)sc2-c2ccncc2)cc1 = 309 to 311 °C
Cc1nc(N)nc(N)c1/C=C/C(C)(C)c1ccc(C(F)(F)F)cc1 = 182 to 185 °C

====

melting point listing for selected compounds.
MEASURED_ENDPOINT: melting point

NC(=O)c1c(Cl)c(-c2ccccc2)n2c1CN(S(=O)(=O)c1ccccc1)CC2 = 250 to 252 °C
C=CCOC(=O)NCC(=N)NO = 91 to 92 °C
CC(=NO)c1ccc2c(c1)C(=NNc1cccc(S(N)(=O)=O)c1C)C(=O)N2 = > 250 °C
CC1(c2ccccc2)Cc2cc(OCC(=O)O)c(Cl)c(Cl)c2C1O (stereo not drawn) = 160 to 162 °C
Cc1ccc(-c2cc(C(F)(F)F)nn2-c2ccc(S(=O)(=O)Cl)cc2)cc1 = 97 to 98 °C
CC1CCN(Cc2ccc(COc3cccc4c3CN(C3CCC(=O)NC3=O)C4=O)cc2)CC1 (stereo not drawn) = 189 to 191 °C
Clc1cccc(OC2CCN(CCc3c[nH]c4ccccc34)CC2)c1 = 120 to 123 °C
Cc1cc(O)c(C)c(C)c1OCc1ccccc1 = 101 to 103 °C
CCOc1ccc2[nH]c(=O)n(C3CCCCC3)c2c1 = 203 °C
Cc1cc(C(=O)NCc2cccc([N+](=O)[O-])c2)c(OCC(=O)O)cc1F = 177 to 179 °C
COc1cc(Cn2[nH]c(N)cc2=O)ccc1Cl = 148 °C
Fc1ccc(Nc2ccccc2C=C(Br)Br)cc1 = 75 to 77 °C
NC(=NO)c1ncn2c1nc(N1CCOCC1)c1ccccc12 = 212 to 213 °C
CC(=O)c1ccc2c(c1)N(C)CCC2(C)C = 46 to 48 °C
Cc1cc(C(=O)NCc2ccc(Br)cc2F)c(O)cc1F = 149 to 150 °C
Cc1cc2c(cc1C1=NNC(=O)SC1C)C(C)(C)C(=O)N2 (stereo not drawn) = 240 °C
OCCCN1c2ccccc2CCc2sccc21 = 73 °C
COc1cc(C(=O)n2c3c(c4ccccc42)CC(C(=O)O)CC3)cc(OC)c1OC (stereo not drawn) = 234 to 236 °C
N#Cc1cnc2c(oc3ccccc32)c1O = > 310 °C
Cc1nc(-c2ccc(C(F)(F)F)cc2)sc1CSc1ccc2c(c1)CC(C(=O)O)CO2 (stereo not drawn) = 139 to 140 °C
N#Cc1cccnc1Oc1cccc(Cl)c1 = 88 to 90 °C
Cc1cccc(OC2CN(C(N)=O)C2)c1 = 167 to 168 °C
Cc1ccc(-n2nc(C(F)(F)F)cc2-c2ccc(S(C)(=O)=O)cc2)cc1Cl = 136 to 138 °C
O=C(O)COc1ccc2c(-c3ccccc3F)noc2c1 = 182 to 184 °C
N#Cc1ccc(-c2ccc(N3CCOCC3)cc2)[nH]c1=O = 272 to 275 °C
COc1cc(OCC2CCCO2)ccc1/C=C/c1cc(/C=C/c2ccc3cc[nH]c3c2)n[nH]1 (stereo not drawn) = 218 to 220 °C
Cc1ccc(Cc2cnc(NCC(O)COc3cccc(CN4CCCCC4)c3)[nH]c2=O)cn1 (stereo not drawn) = 115 to 117 °C
Cc1n[nH]c2c1c(=O)n(-c1ccccc1)c1ncccc21 = > 300 °C
Cc1[nH]c(=O)n(-c2cc(C(=O)OC(C)C)c(Cl)cc2F)c(=O)c1Cl = 198 to 201 °C
N#Cc1ccc(OCc2cccnc2)cc1OC(CCC(=O)O)c1cccc2c1OCO2 (racemic) = 181 to 183 °C
CCOC(=O)COc1ccc(NC(=O)c2ccc(C(C)(C)C)cc2)cc1 = 119 to 122 °C
COc1ccc(CC(NC(c2ccccc2)c2ccccc2)P(O)O)cc1 (stereo not drawn) = 199 to 202 °C
O=c1[nH]c(-c2ccccc2F)nc2c1CCCC2 = 170 °C
CC(C)(C)c1cccc(S(=O)(=O)n2c(CBr)cc3cc(C(F)(F)F)ccc32)c1 = 80 °C
COc1cc(Cc2cnc(N)nc2N)cc2cccnc12 = 285 to 287 °C
O=C(O)c1cccn2c(-c3ccc(F)cc3)cnc12 = > 400 °C
CC(=O)NC1Cc2cccc3cccc(c23)C1=O (stereo not drawn) = 185 to 186 °C
Nc1nc2ccccc2c2c1nc(CO)n2CC1CCOCC1 = 239 to 241 °C
